# experimental_target: T1, hNav1.5-B1-C1-D1-llFc (human)
# T1 construct: also called Nav1.5 extracellular loop B1-C1-D1 llamaFc chimera
# T1 chain: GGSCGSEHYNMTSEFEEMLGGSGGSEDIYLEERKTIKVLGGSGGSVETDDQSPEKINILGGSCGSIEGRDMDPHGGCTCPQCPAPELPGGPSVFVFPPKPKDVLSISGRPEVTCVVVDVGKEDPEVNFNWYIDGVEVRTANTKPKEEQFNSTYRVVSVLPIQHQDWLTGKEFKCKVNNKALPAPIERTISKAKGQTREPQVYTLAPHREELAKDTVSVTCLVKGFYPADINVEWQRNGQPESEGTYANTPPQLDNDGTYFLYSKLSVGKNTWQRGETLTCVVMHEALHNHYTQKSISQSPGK
# experiment_summary: binding ELISA; the panel prints no target, by paragraph 288 and paragraph 555 the coated hNav1.5 loop B1-C1-D1-llama Fc
property_label: binding result

9H4 (antibody, human IgG1, V domains shown) VH: EVQLVQPGAELRNPGASVKVSCKASGYIFTSAYIDWVRQAPGQGLEWMGRIDPEDGETRYAHQFRDRVTFTADTSTSTVYAELNSLRSEDTAVYYCAITIEGFWGQGTQVTVSS VL: ATMLTQSPGSLSVVPGESASISCKTSRSLVHSDGKTYLSWLLQKPGQSPQRLIYQVSNRGSGVPDRFTGSGSGTDFTLKISGVKAEDAGVYYCAQATYYPLSFGSGTRVEIK : binds
